Some molecules, each annotated with its measured viability, T/C.
Tested on: 628569-122-R-J1-PDC complex spheroid viability;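 note: spheroids exposed to agents for seven days before readout; 100% = DMSO vehicle control viability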
ASSAY_NAME: Anticancer human tumor 628569-122-R-J1-PDC patient-derived head and neck squamous carcinoma cell line growth inhibition [CLK]
MEASUREMENT_PARAMETERS: second compound 0.316 µM; first compound 0.01 µM; hits give low values

MOLECULE	UNIT_NAME	viability, T/C
Cn1ncnc1[C@H]1c2n[nH]c(=O)c3cc(F)cc(c23)N[C@@H]1c1ccc(F)cc1 + CNC(=O)c1ccc(Nc2nc(OC3CCCC3)c3c(-c4ccc5nc(C)oc5c4)c[nH]c3n2)c(OC)c1	%	54.4
CCc1c2c(nc3ccc(O)cc13)-c1cc3c(c(=O)n1C2)COC(=O)[C@]3(O)CC + CNC(=O)c1ccc(Nc2nc(OC3CCCC3)c3c(-c4ccc5nc(C)oc5c4)c[nH]c3n2)c(OC)c1	%	49.4
CCc1c2c(nc3ccc(O)cc13)-c1cc3c(c(=O)n1C2)COC(=O)[C@]3(O)CC + CN1CCN(c2cc(C(=O)Nc3cc4cc(-c5cnn(C)c5)ccc4cn3)ccn2)CC1	%	36.4
